tested on: Vero E6 infected with SARS-CoV-2; assay: inhibition of SARS-CoV-2 cytopathic effect; higher = more antiviral protection, active = above 15; conditions: 100 nM; 48 h
quantityMeasured: inhibition of SARS-CoV-2 cytopathic effect

Req: // lookup inhibition of SARS-CoV-2 cytopathic effect for CC(C(=O)O)c1ccc(C(=O)c2cccs2)cc1 (centres undefined)
Resp: -0.86% (inactive)

Req: // lookup inhibition of SARS-CoV-2 cytopathic effect for [O-][n+]1cccc(CO)c1 [mepiroxol]
Resp: 2.65% (inactive)

Req: // lookup inhibition of SARS-CoV-2 cytopathic effect for O=C(O)Cc1sc(-c2ccccc2)nc1-c1ccc(Cl)cc1
Resp: -1.78% (inactive)

Req: // lookup inhibition of SARS-CoV-2 cytopathic effect for COc1ccc(C2CNC(=O)NC2)cc1O[C@H]1C[C@@H]2CC[C@H]1C2
Resp: -0.71% (inactive)

Req: // lookup inhibition of SARS-CoV-2 cytopathic effect for N#Cc1cc(NC(=O)C(=O)O)c(Cl)c(NC(=O)C(=O)O)c1 [lodoxamide]
Resp: -0.16% (inactive)

Req: // lookup inhibition of SARS-CoV-2 cytopathic effect for CCOC(=O)c1ccc(-c2ccc(OC(=O)N(C)Cc3cccc(-c4ccncc4)c3)cc2)cc1
Resp: 3.06% (inactive)

Req: // lookup inhibition of SARS-CoV-2 cytopathic effect for Cc1ccc(Cl)cc1N(CC(=O)Nc1c(F)cccc1F)S(C)(=O)=O
Resp: -1.24% (inactive)

Req: // lookup inhibition of SARS-CoV-2 cytopathic effect for NC(CO)C(=O)NNCc1ccc(O)c(O)c1O (centres undefined) [benserazide]
Resp: 2.6% (inactive)

Req: // lookup inhibition of SARS-CoV-2 cytopathic effect for O=C(N[C@H](Cc1ccccc1)C(=O)O)c1sc2cc(F)ccc2c1Cl
Resp: 0.39% (inactive)

Req: // lookup inhibition of SARS-CoV-2 cytopathic effect for Cn1c(COP(=O)(NCCBr)NCCBr)cnc1[N+](=O)[O-]
Resp: 0.12% (inactive)

Req: // lookup inhibition of SARS-CoV-2 cytopathic effect for COc1cc2ncnc(Sc3nnc(C)s3)c2cc1OC
Resp: 3.01% (inactive)

Req: // lookup inhibition of SARS-CoV-2 cytopathic effect for CC(=O)NCCc1c[nH]c2ccccc12
Resp: 2.28% (inactive)

Req: // lookup inhibition of SARS-CoV-2 cytopathic effect for NC[C@H](O)c1ccc(O)c(O)c1 [norepinephrine]
Resp: -2.09% (inactive)

Req: // lookup inhibition of SARS-CoV-2 cytopathic effect for CC(C)C[C@@H](C(=O)N[C@H](C(=O)OC1CCCC1)c1ccccc1)[C@H](O)C(=O)NO
Resp: -1.49% (inactive)

###

tested on: Vero E6 infected with SARS-CoV-2; test: inhibition of SARS-CoV-2 cytopathic effect; higher = more antiviral protection, active = above 15; conditions: 100 nM; 48 h
I'd appreciate it if you could supply inhibition of SARS-CoV-2 cytopathic effect values for the items below.
Unit % implied. Number only.

Req: // lookup inhibition of SARS-CoV-2 cytopathic effect for Cc1cc(Nc2cc(N3CCN(C)CC3)nc(Sc3ccc(NC(=O)C4CC4)cc3)n2)n[nH]1
Resp: -0.22

Req: // lookup inhibition of SARS-CoV-2 cytopathic effect for C[C@H](c1ccc2ccc(OC3CCC(C(F)(F)F)CC3)c(C(F)(F)F)c2c1)N1C2CCC1CC(C(=O)O)C2 (stereo partly specified)
Resp: 0.86

Req: // lookup inhibition of SARS-CoV-2 cytopathic effect for COc1ccc(Cn2ccc3ccc(C(=O)NO)cc32)cc1
Resp: 3.29

Req: // lookup inhibition of SARS-CoV-2 cytopathic effect for CCc1c(C(=O)C(N)=O)c2c(OCC(=O)O)cccc2n1Cc1ccccc1
Resp: 1.35

Req: // lookup inhibition of SARS-CoV-2 cytopathic effect for FC(F)(F)c1cc(CO[C@H]2CCCN[C@H]2c2ccccc2)cc(C(F)(F)F)c1
Resp: -5.07

Req: // lookup inhibition of SARS-CoV-2 cytopathic effect for O=C1c2cccc3c2[C@H](CCC3)CN1[C@@H]1CN2CCC1CC2
Resp: -0.65

Req: // lookup inhibition of SARS-CoV-2 cytopathic effect for CCCCC1=NC2(CCCC2)C(=O)N1Cc1ccc(-c2ccccc2-c2nnn[nH]2)cc1
Resp: 0.89

Req: // lookup inhibition of SARS-CoV-2 cytopathic effect for OC1=c2ccccc2=C(NC2CCCCC2)/C1=C\c1ccccc1
Resp: 0.42

Req: // lookup inhibition of SARS-CoV-2 cytopathic effect for CC[C@H](C)[C@H](N)C(=O)O
Resp: -0.12

Req: // lookup inhibition of SARS-CoV-2 cytopathic effect for NS(=O)(=O)Nc1ncnc(OCCOc2ncc(Br)cn2)c1-c1ccc(Br)cc1
Resp: -0.65

Req: // lookup inhibition of SARS-CoV-2 cytopathic effect for COc1ncc(-c2ccc3nccc(-c4ccnnc4)c3c2)cc1NS(=O)(=O)c1ccc(F)cc1F
Resp: -8.41

Req: // lookup inhibition of SARS-CoV-2 cytopathic effect for CCN(CC)C(=S)S [ditiocarb-sodium-trihydrate]
Resp: 0.86

Req: // lookup inhibition of SARS-CoV-2 cytopathic effect for N#Cc1cccc(-c2c[nH]c3ncnc(N4CCOCC4)c23)c1
Resp: -2.71

Req: // lookup inhibition of SARS-CoV-2 cytopathic effect for CN1CCC(Nc2ncc3ncnc(Nc4ccc(F)c(Cl)c4)c3n2)CC1
Resp: -4.55

Req: // lookup inhibition of SARS-CoV-2 cytopathic effect for N=C(N)NC(=O)c1nc(Cl)c(N)nc1N [amiloride]
Resp: 2.25

Req: // lookup inhibition of SARS-CoV-2 cytopathic effect for C[C@@H]1CN(Cc2ccc(F)cc2)CCN1C(=O)COc1ccc(Cl)cc1NC(N)=O
Resp: -2

###

system: Vero E6 infected with SARS-CoV-2; experiment: inhibition of SARS-CoV-2 cytopathic effect; higher = more antiviral protection, active = above 15; settings: 100 nM; 48 h
I'd appreciate it if you could supply inhibition of SARS-CoV-2 cytopathic effect values for the items below.

Req: // lookup inhibition of SARS-CoV-2 cytopathic effect for CC(C(=O)O)c1ccc(CC2CCCC2=O)cc1 (stereo not given)
Resp: 2.9% (inactive)

Req: // lookup inhibition of SARS-CoV-2 cytopathic effect for CC(C)Cc1ccc([C@@H](C)C(=O)NCCO)cc1 (racemic)
Resp: -0.66% (inactive)

Req: // lookup inhibition of SARS-CoV-2 cytopathic effect for C[N+]1([O-])[C@@H]2C[C@@H](OC(=O)[C@H](CO)c3ccccc3)C[C@H]1[C@@H]1O[C@@H]12 (stereo not given in full) [scopolamine-N-oxide]
Resp: 3.81% (inactive)

Req: // lookup inhibition of SARS-CoV-2 cytopathic effect for CCN(CC)CCOc1ccc2c(c1)C(=O)c1cc(OCCN(CC)CC)ccc1-2
Resp: 1.34% (inactive)

Req: // lookup inhibition of SARS-CoV-2 cytopathic effect for O=c1c(O[C@@H]2O[C@H](CO)[C@H](O)[C@H](O)[C@H]2O)c(-c2ccc(O)c(O)c2)oc2cc(O)cc(O)c12
Resp: -0.59% (inactive)

###

I'd appreciate it if you could supply inhibition of SARS-CoV-2 cytopathic effect values for the items below.
test system: Vero E6 infected with SARS-CoV-2; assay: inhibition of SARS-CoV-2 cytopathic effect; higher = more antiviral protection, active = above 15; conditions: 833.33 nM; 48 h
Unit % implied. Number only.

Req: // lookup inhibition of SARS-CoV-2 cytopathic effect for O=C(Nc1cnccc1Cl)N1CCN(Cc2ccc3c(c2)OC(F)(F)O3)CC1
Resp: 0.76

Req: // lookup inhibition of SARS-CoV-2 cytopathic effect for S=C(NC1CCCCC1)N1CCC(c2cnc[nH]2)CC1 [thioperamide]
Resp: 0.28

Req: // lookup inhibition of SARS-CoV-2 cytopathic effect for COc1ccc(O)cc1 [mequinol]
Resp: 1.18

Req: // lookup inhibition of SARS-CoV-2 cytopathic effect for O=C(O)Cc1sc(-c2ccccc2)nc1-c1ccc(Cl)cc1 [fentiazac]
Resp: 0.61

Req: // lookup inhibition of SARS-CoV-2 cytopathic effect for COc1ccc2[nH]cc(C3=CCNCC3)c2c1
Resp: -2.22

Req: // lookup inhibition of SARS-CoV-2 cytopathic effect for CCCCC/N=c1\ccn(Cc2ccccc2)c2ccccc12
Resp: -0.71

Req: // lookup inhibition of SARS-CoV-2 cytopathic effect for CC(=O)[C@]1(N)Cc2c(O)c3c(c(O)c2[C@@H](O[C@H]2C[C@H](O)[C@H](O)CO2)C1)C(=O)c1ccccc1C3=O [amrubicin]
Resp: -3.9

Req: // lookup inhibition of SARS-CoV-2 cytopathic effect for COCC[n+]1c2c(n(Cc3cnccn3)c1C)C(=O)c1ccccc1C2=O
Resp: -2.2

Req: // lookup inhibition of SARS-CoV-2 cytopathic effect for O=C(O)c1ccc2cc(-c3ccc(O)c(C45CC6CC(CC(C6)C4)C5)c3)ccc2c1
Resp: -2.65

FYI, the data here is from the supplement of paper PMC13380429.
